System: IFN-γ
methodDescription: IFN-γ levels in sera upon i.v. glycolipid administration to C57BL/6 mice (ELISA)
Format: in vivo
Set-up: unit not given here
runConditions: C57BL/6, serum, hour 24
Threshold 8000. IFN-γ levels, test 1 below it: fulfilled. IFN-γ levels, test 1 at it or above: not fulfilled.

CCCCCCCCCCCCCCCCCCCCCCCCCC(=O)N[C@@H](CC[C@H]1O[C@H](CO)[C@H](O)[C@H](O)[C@H]1O)[C@H](O)[C@H](O)CCCCCCCCCCCCCC [CRONY, reference compound] :: fulfilled
CCCCCCCCCCCCCCCCC/C=C/CCCCCCCCC(=O)N[C@@H](CC[C@H]1O[C@H](CO)[C@H](O)[C@H](O)[C@H]1O)[C@H](O)[C@H](O)CCCCCCCCCCCCCC :: not fulfilled

Problem: Could you please tell me whether IFN-γ levels, test 1 recorded for CCCCCCCCCCCCCCCCCCCCCCCCCC(=O)N[C@@H](CO[C@H]1O[C@H](CO)[C@H](O)[C@H](O)[C@H]1O)[C@H](O)[C@H](O)CCCCCCCCCCCCCC [KRN, reference compound] is less than 8000?
Result: fulfilled

Problem: Same thing, different compound: `CCCCCCCCCCCCCC[C@@H](O)[C@@H](O)[C@H](CC[C@H]1O[C@H](CO)[C@H](O)[C@H](O)[C@H]1O)NC(=O)CCCCCCCCCCCCCCCCCCCOCCCCC`
Result: fulfilled

Problem: Same thing, different compound: `CCCCCCCCCCCCCCCCCC/C=C/CCCCCCCCC(=O)N[C@@H](/C=C/[C@H]1O[C@H](CO)[C@H](O)[C@H](O)[C@H]1O)[C@H](O)[C@H](O)CCCCCCCCCCCCCC`
Result: not fulfilled

Problem: Same thing, different compound: `CCCCCCCCCCCCCC[C@@H](O)[C@@H](O)[C@H](CC[C@H]1O[C@H](CO)[C@H](O)[C@H](O)[C@H]1O)NC(=O)CCCCCCCCCCCCCCCCCCCOCCCCCC`
Result: fulfilled
